The values you see were collected from patent US20250250357A1.

# test-target: T1, human MSLN-R1-his protein (human, UniProt Q13421 296-390)
# T1 construct: also called hMSLN-R1-his; human MSLN-R1 protein; not shown: His tag
# T1 chain: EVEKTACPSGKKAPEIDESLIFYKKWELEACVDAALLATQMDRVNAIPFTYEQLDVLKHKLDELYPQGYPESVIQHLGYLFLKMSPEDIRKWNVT
# experiment-notes: ELISA, coated antigen; antibody 100 nM
Attribute: OD450
Lab note: jot down the number only; don't add units.

binder="S009-F1.35.24 human-murine chimeric antibody (antibody, human IgG1, kappa, V domains shown, Chimeric IgG1/kappa) VH: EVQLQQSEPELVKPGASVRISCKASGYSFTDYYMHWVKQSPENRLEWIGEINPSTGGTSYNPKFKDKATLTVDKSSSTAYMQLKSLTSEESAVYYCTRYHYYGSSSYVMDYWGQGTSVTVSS VL: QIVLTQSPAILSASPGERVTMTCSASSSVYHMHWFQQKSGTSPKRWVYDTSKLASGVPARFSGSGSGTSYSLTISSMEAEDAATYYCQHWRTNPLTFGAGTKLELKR" assay_result=0.06
binder="S009-F1.62.9 human-murine chimeric antibody (antibody, human IgG1, kappa, V domains shown, Chimeric IgG1/kappa) VH: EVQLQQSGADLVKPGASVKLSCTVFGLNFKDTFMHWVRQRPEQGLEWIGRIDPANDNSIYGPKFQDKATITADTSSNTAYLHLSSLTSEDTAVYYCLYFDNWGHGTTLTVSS VL: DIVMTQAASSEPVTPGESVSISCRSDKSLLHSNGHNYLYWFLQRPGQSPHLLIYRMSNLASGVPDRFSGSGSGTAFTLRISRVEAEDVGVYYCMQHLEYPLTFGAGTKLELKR" assay_result=0.06
binder="S009-F1.56.1 human-murine chimeric antibody (antibody, human IgG1, kappa, V domains shown, Chimeric IgG1/kappa) VH: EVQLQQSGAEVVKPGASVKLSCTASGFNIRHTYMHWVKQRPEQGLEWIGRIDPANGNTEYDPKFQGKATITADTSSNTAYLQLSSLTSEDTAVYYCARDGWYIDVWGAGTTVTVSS VL: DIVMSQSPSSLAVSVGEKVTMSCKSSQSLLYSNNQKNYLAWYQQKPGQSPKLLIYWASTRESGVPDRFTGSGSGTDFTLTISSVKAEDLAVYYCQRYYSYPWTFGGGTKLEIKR" assay_result=0.12

// next entry
Report OD450 for S009-F1.2.12 human-murine chimeric antibody (antibody, human IgG1, kappa, V domains shown, Chimeric IgG1/kappa) VH: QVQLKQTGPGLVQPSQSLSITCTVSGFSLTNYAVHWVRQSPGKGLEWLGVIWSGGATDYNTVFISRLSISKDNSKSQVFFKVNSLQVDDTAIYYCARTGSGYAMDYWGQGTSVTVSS VL: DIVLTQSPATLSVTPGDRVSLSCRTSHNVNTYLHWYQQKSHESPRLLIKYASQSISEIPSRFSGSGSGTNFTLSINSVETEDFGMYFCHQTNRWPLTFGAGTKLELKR please.
0.05
